Origin of the recorded values: paper PMC7819943

Below, each of the sequences is paired with its reported binding signal value.
# TARGET SYSTEM: OsSMF1 (Oryza sativa, UniProt Q6ZLB0 1-436)
# Sequence: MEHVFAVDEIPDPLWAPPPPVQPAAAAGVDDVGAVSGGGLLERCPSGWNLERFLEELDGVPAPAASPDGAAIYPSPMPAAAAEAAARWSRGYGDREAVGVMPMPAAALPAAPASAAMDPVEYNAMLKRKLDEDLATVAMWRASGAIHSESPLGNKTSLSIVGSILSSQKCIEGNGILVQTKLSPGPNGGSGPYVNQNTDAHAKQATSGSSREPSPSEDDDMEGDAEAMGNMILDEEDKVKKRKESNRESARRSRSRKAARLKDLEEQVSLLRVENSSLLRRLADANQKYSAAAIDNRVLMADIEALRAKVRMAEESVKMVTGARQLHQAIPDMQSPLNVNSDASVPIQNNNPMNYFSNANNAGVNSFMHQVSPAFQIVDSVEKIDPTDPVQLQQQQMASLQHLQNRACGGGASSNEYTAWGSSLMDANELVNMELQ
# PROTOCOL SUMMARY: protein-binding microarray (RPBM); PBS, 2% BSA, 51.3 ng/ul salmon testes DNA, 50 uM zinc acetate, 200 nM TF, 25 C, 1 h; high values mean tight binding
# CONDITIONS USED: protein: recombinant; tags: N-terminal polyhistidine and DsRed monomer fusion (pET32a); chain copies: 2; label: CyDye5-dUTP incorporated in the synthesized complementary strand; 3' TTTTT single-stranded linker to array surface; dsDNA, one strand shown
Whole data set: some 39,000 sequences, median “fluorescence intensity (a.u.)” near 4,300, cut for the highest 2% near 39,000. Shown is part of a subset that was picked to be rich in the highest values.

Reference set, count: 5
CCCATTGATGCTACAGAGAGTCCACGTCACCCTCGTCTGCCGGAGTCACCTAGTGCAG 42800 fluorescence intensity (a.u.)
ATTAGGCTCAAAAGATTCGTCTCGCGATTTTCAGACGAGCCGGAGTCACCTAGTGCAG 41800 fluorescence intensity (a.u.)
CGTACGGATATGCCCACGTGGCGAAGTCCCACGACGCCACCGGAGTCACCTAGTGCAG 9930 fluorescence intensity (a.u.)
AGGATTTCATGTGTTTTGGTTAACATATTCATGTGTGTCTCGGAGTCACCTAGTGCAG 3500 fluorescence intensity (a.u.)
GCTGTCCTGCTCGTCGGCCTCCACGCGCGCTCATCGGCCTCGGAGTCACCTAGTGCAG 3240 fluorescence intensity (a.u.)

Documented binding signal of `TGGAAAGAATACAGTATGATATGGTCTTATTTTGTCTGCCCGGAGTCACCTAGTGCAG` : 41200 fluorescence intensity (a.u.)

# binding signal (sequence: `ACAGTAGCACCGGAAAGCTGCATGTGAAGTCTAGTCAACGCGGAGTCACCTAGTGCAG` ) is 4250 fluorescence intensity (a.u.)

The reported value for `CTCCTTCCATTTGTACCCACGTCTGCTGTCCATTGACCGGCGGAGTCACCTAGTGCAG` in terms of binding signal is 6910 fluorescence intensity (a.u.)
